Entry source: PubChem BioAssay AID2060508

test system: 454973-116-R2-J3-PDC spheroids, viability, % test/control; experiment: Anticancer human tumor 454973-116-R2-J3-PDC patient-derived pancreatic carcinoma cell line growth inhibition [GQUAD]; conditions: second compound 0.316 µM; first compound 1 µM; spheroids with HUVEC and MSC; active means viability on the fitted dose curve at most 10% of control; inactive means the rest;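 further: spheroids exposed to compounds for seven days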
Possible outcomes: active, inactive

[[record]]
compound = "CC(=O)O[C@H]1C(=O)[C@@]2(C)[C@H]([C@H](OC(=O)c3ccccc3)[C@]3(O)C[C@H](OC(=O)[C@H](O)[C@@H](NC(=O)c4ccccc4)c4ccccc4)C(C)=C1C3(C)C)[C@]1(OC(C)=O)CO[C@@H]1C[C@@H]2O + CN(C)c1ccc(Nc2c3ccc(NC(=O)CCN4CCCC4)cc3nc3cc(NC(=O)CCN4CCCC4)ccc23)cc1"
label_class = "active"

[[record]]
compound = "C=CC(=O)N1CCN(c2nc(=O)n(-c3c(C)ccnc3C(C)C)c3nc(-c4c(O)cccc4F)c(F)cc23)C(C)C1 (stereo not given) + CN(C)c1ccc(Nc2c3ccc(NC(=O)CCN4CCCC4)cc3nc3cc(NC(=O)CCN4CCCC4)ccc23)cc1"
label_class = "inactive"

[[record]]
compound = "O=C(NO)c1cnc(N2CCN(S(=O)(=O)c3ccc4ccccc4c3)CC2)nc1 + Cc1[nH]c2ccc(F)cc2c1-c1nc2c3cccnc3c3ncccc3c2[nH]1"
label_class = "inactive"

[[record]]
compound = "CC1COCCN1c1cc(C2(S(C)(=N)=O)CC2)nc(-c2ccnc3[nH]ccc23)n1 (stereo not given) + Cc1[nH]c2ccc(F)cc2c1-c1nc2c3cccnc3c3ncccc3c2[nH]1"
label_class = "inactive"

[[record]]
compound = "CC(C)n1c(=O)n(C)c2cnc3cc(F)c(-c4ccc(OCCCN5CCCCC5)nc4)cc3c21 + CN(C)c1ccc(Nc2c3ccc(NC(=O)CCN4CCCC4)cc3nc3cc(NC(=O)CCN4CCCC4)ccc23)cc1"
label_class = "inactive"

[[record]]
compound = "CC1COCCN1c1cc(-c2ccnn2C)c2ccnc(-c3ccn[nH]3)c2n1 (stereo not given) + Cc1cnc(CNC(=O)c2c(=O)c3ccc(N4CCCN(C)CC4)nc3n3c2sc2ccccc23)cn1"
label_class = "inactive"

[[record]]
compound = "C#Cc1c(F)ccc2cc(O)cc(-c3ncc4c(N5CC6CCC(C5)N6)nc(OCC56CCCN5CC(F)C6)nc4c3F)c12 (stereo not given) + Cc1cnc(CNC(=O)c2c(=O)c3ccc(N4CCCN(C)CC4)nc3n3c2sc2ccccc23)cn1"
label_class = "inactive"

[[record]]
compound = "COc1cc(C2c3cc4c(cc3C(OC3OC5COC(C)OC5C(O)C3O)C3COC(=O)C23)OCO4)cc(OC)c1O (stereo not given) + CN(C)c1ccc(Nc2c3ccc(NC(=O)CCN4CCCC4)cc3nc3cc(NC(=O)CCN4CCCC4)ccc23)cc1"
label_class = "inactive"

[[record]]
compound = "C=CCn1c(=O)c2cnc(Nc3ccc(N4CCN(C)CC4)cc3)nc2n1-c1cccc(C(C)(C)O)n1 + CN(C)c1ccc(Nc2c3ccc(NC(=O)CCN4CCCC4)cc3nc3cc(NC(=O)CCN4CCCC4)ccc23)cc1"
label_class = "inactive"

[[record]]
compound = "O=c1[nH]cc(F)c(=O)[nH]1 + Cc1cnc(CNC(=O)c2c(=O)c3ccc(N4CCCN(C)CC4)nc3n3c2sc2ccccc23)cn1"
label_class = "inactive"

[[record]]
compound = "CC(C)(O)C1CCC(Nc2ccc3ncc(-c4cccc(C(F)(F)F)c4)n3n2)CC1 (stereo not given) + CN(C)c1ccc(Nc2c3ccc(NC(=O)CCN4CCCC4)cc3nc3cc(NC(=O)CCN4CCCC4)ccc23)cc1"
label_class = "inactive"

[[record]]
compound = "COc1cccc2c1C(=O)c1c(O)c3c(c(O)c1C2=O)CC(O)(C(=O)CO)CC3OC1CC(N)C(O)C(C)O1 (stereo not given) + Cc1cnc(CNC(=O)c2c(=O)c3ccc(N4CCCN(C)CC4)nc3n3c2sc2ccccc23)cn1"
label_class = "inactive"

[[record]]
compound = "CC1COCCN1c1cc(C2(O)CC3CCC(C2)O3)c2cnn(-c3ccn[nH]3)c2n1 (stereo not given) + Cc1cnc(CNC(=O)c2c(=O)c3ccc(N4CCCN(C)CC4)nc3n3c2sc2ccccc23)cn1"
label_class = "inactive"

[[record]]
compound = "CC(C)n1c(=O)n(C)c2cnc3cc(F)c(-c4ccc(OCCCN5CCCCC5)nc4)cc3c21 + Cc1cnc(CNC(=O)c2c(=O)c3ccc(N4CCCN(C)CC4)nc3n3c2sc2ccccc23)cn1"
label_class = "inactive"

[[record]]
compound = "C=CCn1c(=O)c2cnc(Nc3ccc(N4CCN(C)CC4)cc3)nc2n1-c1cccc(C(C)(C)O)n1 + Cc1cnc(CNC(=O)c2c(=O)c3ccc(N4CCCN(C)CC4)nc3n3c2sc2ccccc23)cn1"
label_class = "inactive"

[[record]]
compound = "COc1ccc([C@@H](O)c2cc(-c3ncnc4cc(N5CCOCC5)ccc34)c(F)cc2Cl)nn1 + CN(C)c1ccc(Nc2c3ccc(NC(=O)CCN4CCCC4)cc3nc3cc(NC(=O)CCN4CCCC4)ccc23)cc1"
label_class = "inactive"

[[record]]
compound = "CC1COCCN1c1cc(-c2ccnn2C)c2ccnc(-c3ccn[nH]3)c2n1 (stereo not given) + Cc1[nH]c2ccc(F)cc2c1-c1nc2c3cccnc3c3ncccc3c2[nH]1"
label_class = "inactive"

[[record]]
compound = "COc1cccc2c1C(=O)c1c(O)c3c(c(O)c1C2=O)CC(O)(C(=O)CO)CC3OC1CC(N)C(O)C(C)O1 (stereo not given) + Cc1[nH]c2ccc(F)cc2c1-c1nc2c3cccnc3c3ncccc3c2[nH]1"
label_class = "inactive"

[[record]]
compound = "C=CC(=O)N1CCN(c2nc(=O)n(-c3c(C)ccnc3C(C)C)c3nc(-c4c(O)cccc4F)c(F)cc23)C(C)C1 (stereo not given) + Cc1[nH]c2ccc(F)cc2c1-c1nc2c3cccnc3c3ncccc3c2[nH]1"
label_class = "inactive"

[[record]]
compound = "Nc1ccn(C2OC(CO)C(O)C2(F)F)c(=O)n1 (stereo not given) + CN(C)c1ccc(Nc2c3ccc(NC(=O)CCN4CCCC4)cc3nc3cc(NC(=O)CCN4CCCC4)ccc23)cc1"
label_class = "inactive"

